target: T1, recombinant LILRB2 ECD (human, UniProt Q8N423 22-460); test: ELISA, LILRB2 ECD binding to HLA-G-Fc
T1 construct: also called biotinylated LILRB2 ECD
T1 sequence (Q8N423 22-460 limits assumed): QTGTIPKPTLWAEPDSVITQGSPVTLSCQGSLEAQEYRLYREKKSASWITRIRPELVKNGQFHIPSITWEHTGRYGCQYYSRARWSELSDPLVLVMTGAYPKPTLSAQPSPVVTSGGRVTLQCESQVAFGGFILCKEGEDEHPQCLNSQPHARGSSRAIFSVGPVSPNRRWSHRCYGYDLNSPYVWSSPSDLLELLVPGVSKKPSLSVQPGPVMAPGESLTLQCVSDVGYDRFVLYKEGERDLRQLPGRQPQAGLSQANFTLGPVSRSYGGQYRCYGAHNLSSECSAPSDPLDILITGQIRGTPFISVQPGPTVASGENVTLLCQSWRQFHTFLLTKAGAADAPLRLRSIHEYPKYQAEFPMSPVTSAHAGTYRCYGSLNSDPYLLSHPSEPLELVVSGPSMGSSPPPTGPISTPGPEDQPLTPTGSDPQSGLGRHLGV
Metric name: pIC50
Entry type: numeric. Quantity: pIC50, the -log10 of concentration in molar units.

Illustrative cases are given below, each with its answer.
INSERT INTO results (binder, metric_name, observed_value) VALUES
  ('A-012 (antibody, V domains shown, tested as IgG) VH: QVQLVQSGAEVKKPGSSVKVSCKASGGTISEYAFLWVRQAPGQGLEWMGGIIPKFHTANYAQKFQGRVTITADESTSTAYMELSSLRSEDTAVYYCAKDLGTYSSGWPYYYGMDVWGQGTTVTVSS VL: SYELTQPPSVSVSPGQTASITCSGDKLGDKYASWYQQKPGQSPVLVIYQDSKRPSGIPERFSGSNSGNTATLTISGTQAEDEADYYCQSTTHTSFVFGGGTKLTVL', 'pIC50', 8.42),
  ('A-004 (antibody, V domains shown, tested as IgG) VH: QVQLVQSGAEVKKPGSSVKVSCKASGGTFRTKAIAWVRQAPGQGLEWMGGIIPIFSTANYAPKFQGRVTITADESTSTAYMELSSLRSEDTAVYYCAKDLGTYSSGWPYYYGMDVWGQGTTVTVSS VL: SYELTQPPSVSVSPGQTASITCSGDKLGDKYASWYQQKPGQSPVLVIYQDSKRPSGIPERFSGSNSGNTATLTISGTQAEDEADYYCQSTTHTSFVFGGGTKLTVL', 'pIC50', 8.35),
  ('A-022 (antibody, V domains shown, tested as IgG) VH: QVQLVQSGAEVKKPGSSVKVSCKASGGTFGGSAISWVRQAPGQGLEWMGGIVLAYSTSVYAQKFQGRVTITADESTSTAYMELSSLRSEDTAVYYCAKGPPVGSSSWYTDWYFDLWGRGTLVTVSS VL: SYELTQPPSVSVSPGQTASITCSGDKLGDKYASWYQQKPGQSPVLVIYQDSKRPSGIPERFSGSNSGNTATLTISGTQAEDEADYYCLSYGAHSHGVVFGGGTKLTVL', 'pIC50', 8.51);

**Query** What pIC50 value was documented for this binder, A-027 (antibody, V domains shown, tested as IgG) VH: QVQLVQSGAEVKKPGSSVKVSCKASGGSFTGYAISWVRQAPGQGLEWMGGILPSFYTAVYAQKFQGRVTITADESTSTAYMELSSLRSEDTAVYYCAKGPPVGSSSWYTDWYFDLWGRGTLVTVSS VL: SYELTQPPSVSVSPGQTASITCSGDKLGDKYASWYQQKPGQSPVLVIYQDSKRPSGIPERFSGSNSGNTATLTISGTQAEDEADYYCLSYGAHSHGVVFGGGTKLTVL ?
**Result** 8.25

// data source = patent US20260209345A1
